- Study target: Msm. GyrB (Mycolicibacterium smegmatis)
- Sequence (A0QNE0 whole entry): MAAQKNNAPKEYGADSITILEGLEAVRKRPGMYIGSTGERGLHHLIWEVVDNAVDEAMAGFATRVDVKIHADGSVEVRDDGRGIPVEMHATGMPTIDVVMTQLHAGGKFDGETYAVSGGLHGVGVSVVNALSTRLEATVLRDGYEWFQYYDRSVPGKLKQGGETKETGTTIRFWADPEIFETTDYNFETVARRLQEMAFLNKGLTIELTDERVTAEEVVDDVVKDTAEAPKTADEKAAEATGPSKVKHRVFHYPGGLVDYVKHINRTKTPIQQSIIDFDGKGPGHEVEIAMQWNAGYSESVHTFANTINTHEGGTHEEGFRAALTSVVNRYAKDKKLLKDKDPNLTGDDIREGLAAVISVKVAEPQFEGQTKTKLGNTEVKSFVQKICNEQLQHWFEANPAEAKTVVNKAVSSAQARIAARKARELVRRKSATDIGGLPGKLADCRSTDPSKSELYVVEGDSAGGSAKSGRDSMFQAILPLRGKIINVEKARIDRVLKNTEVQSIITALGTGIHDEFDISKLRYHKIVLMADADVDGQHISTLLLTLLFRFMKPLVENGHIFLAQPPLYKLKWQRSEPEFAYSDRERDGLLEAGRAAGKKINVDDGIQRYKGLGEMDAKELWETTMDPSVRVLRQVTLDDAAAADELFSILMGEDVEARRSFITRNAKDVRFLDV

- Compound: "CCNC(=O)Nc1nc2cc(-c3cncnc3)c(OCC(F)(F)F)nc2s1"
  Study target: "Msm. GyrB (Mycolicibacterium smegmatis)"
  IC50: "< 3.87 nM"
- Compound: "CCNC(=O)Nc1nc2cc(-c3cncnc3)c(N[C@@H](C)C(=O)OCC)nc2s1"
  Study target: "Msm. GyrB (Mycolicibacterium smegmatis)"
  IC50: "< 2.54 nM"
- Compound: "CCNC(=O)Nc1nc2cc(-c3cncnc3)c(OCc3cscn3)nc2s1"
  Study target: "Msm. GyrB (Mycolicibacterium smegmatis)"
  IC50: "< 2.54 nM"
- Compound: "CCNC(=O)Nc1nc2cc(-c3cnc(C#N)nc3)c(OC3CCOC3)nc2s1 (centres unmarked)"
  Study target: "Msm. GyrB (Mycolicibacterium smegmatis)"
  IC50: "< 2.54 nM"
- Compound: "CCNC(=O)Nc1nc2cc(-c3cncnc3)c(OCCc3scnc3C)nc2s1"
  Study target: "Msm. GyrB (Mycolicibacterium smegmatis)"
  IC50: "< 5.01 nM"
- Compound: "CCNC(=O)Nc1nc2cc(-c3cnc(C#N)nc3)c(OCC3CCOC3)nc2s1 (centres unmarked)"
  Study target: "Msm. GyrB (Mycolicibacterium smegmatis)"
  IC50: "< 2.54 nM"
- Compound: "CCNC(=O)Nc1nc2cc(-c3cncnc3)c(OCC3CCOCC3)nc2s1"
  Study target: "Msm. GyrB (Mycolicibacterium smegmatis)"
  IC50: "< 2.54 nM"
- Compound: "CCNC(=O)Nc1nc2cc(-c3cncnc3)c(OC3CCOC3)nc2s1 (centres unmarked)"
  Study target: "Msm. GyrB (Mycolicibacterium smegmatis)"
  IC50: "< 2.54 nM"

The values you see were collected from patent US20100137303A1.
